meta.source: patent US8129371B2

# target_system: PI3K (Homo sapiens, UniProt P42336)
# Construct: PI3 Kinase α IC50; other: PI3 Kinase α; other: PI3 Kinase α isoform, fluorescence polarization
# Sequence (P42336 whole entry, canonical isoform): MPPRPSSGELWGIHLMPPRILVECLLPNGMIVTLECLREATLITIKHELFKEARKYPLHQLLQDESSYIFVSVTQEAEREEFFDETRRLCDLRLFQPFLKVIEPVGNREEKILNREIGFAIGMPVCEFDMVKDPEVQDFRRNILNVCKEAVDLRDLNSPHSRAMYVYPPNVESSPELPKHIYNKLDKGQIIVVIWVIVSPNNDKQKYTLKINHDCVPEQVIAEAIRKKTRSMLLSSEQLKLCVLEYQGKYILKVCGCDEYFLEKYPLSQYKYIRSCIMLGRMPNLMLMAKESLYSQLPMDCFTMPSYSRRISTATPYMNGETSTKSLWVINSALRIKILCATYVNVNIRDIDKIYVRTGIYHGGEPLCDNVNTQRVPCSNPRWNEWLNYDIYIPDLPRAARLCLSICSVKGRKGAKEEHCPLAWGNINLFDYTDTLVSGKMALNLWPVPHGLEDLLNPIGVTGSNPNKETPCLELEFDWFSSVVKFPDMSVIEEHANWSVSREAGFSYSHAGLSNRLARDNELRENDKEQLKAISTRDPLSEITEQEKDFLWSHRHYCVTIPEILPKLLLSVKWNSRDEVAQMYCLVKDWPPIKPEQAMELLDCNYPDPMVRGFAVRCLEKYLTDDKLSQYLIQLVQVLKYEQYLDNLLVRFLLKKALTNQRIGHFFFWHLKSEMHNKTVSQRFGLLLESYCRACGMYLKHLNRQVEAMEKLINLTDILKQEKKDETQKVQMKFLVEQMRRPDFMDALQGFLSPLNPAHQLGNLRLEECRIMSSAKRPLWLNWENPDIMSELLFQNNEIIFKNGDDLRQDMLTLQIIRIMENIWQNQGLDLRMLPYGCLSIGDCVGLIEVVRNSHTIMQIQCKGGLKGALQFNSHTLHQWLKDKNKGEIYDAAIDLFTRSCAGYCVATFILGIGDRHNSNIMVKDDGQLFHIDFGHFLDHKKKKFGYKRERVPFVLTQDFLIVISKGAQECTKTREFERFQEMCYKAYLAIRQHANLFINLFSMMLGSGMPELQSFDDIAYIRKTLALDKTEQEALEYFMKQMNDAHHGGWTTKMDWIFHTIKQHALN
# experiment_description: Fluorescence polarization assay for PI3K
# Format: biochemical
# particulars: PI3 Kinase α; read-out: PI3 Kinase α IC50
endpoint_name: pIC50
On this scale, pIC50 is minus log10 of a concentration expressed in M (mol/L).

Study these solved cases before continuing.
> print(dat)
                            chemical.string                        target.system  endpoint.name  numeric.readout
1  CN(C)CCn1ncc2c(N3CC4CCC(C3)O4)nc(-c3ccc(NC(=O)OCCO)cc3)nc21  PI3K (Homo sapiens, UniProt P42336)          pIC50             5.45
2  CCn1ncc2c(N3CC4CCC(C3)O4)nc(-c3ccc(NC(=O)Nc4ccc(C)cc4)cc3)nc21  PI3K (Homo sapiens, UniProt P42336)          pIC50             6.07
3  O=C(Nc1ccc(-c2nc(N3CC4CCC(C3)O4)c3cnn(CCO)c3n2)cc1)NC1CC1  PI3K (Homo sapiens, UniProt P42336)          pIC50             5.87

Consider CCn1ncc2c(N3CC4CCC(C3)O4)nc(-c3ccc(NC(=O)Nc4ccc(C(=O)NN(C)C)cc4)cc3)nc21 . Its measured pIC50 is 6.96

The recorded pIC50 for O=C(Nc1ccc(-c2nc(N3C4CCC3COC4)c3cnn(CC(F)(F)F)c3n2)cc1)Nc1ccc(N2CCOCC2)cc1 is 6.21

Documented pIC50 of CCNC(=O)Nc1ccc(-c2nc(N3CC4CCC(C3)O4)c3cnn(C4CCC5(CC4)OCCO5)c3n2)cc1 : 5.34

Data point: CC(C)(C)OC(=O)N1CCC(n2ncc3c(N4CC5CCC(C4)O5)nc(-c4ccc(NC(=O)Nc5cccnc5)cc4)nc32)CC1 ; pIC50 = 6.20

# compound Cn1ncc2c(N3CC4CCC(C3)O4)nc(-c3ccc(NC(=O)Nc4ccncc4)cc3)nc21 ; its pIC50 = 6.79

Reported pIC50 for CCn1ncc2c(N3CC4CCC(C3)O4)nc(-c3ccc(NC(=O)Nc4ccc(N5CCN(C)CC5)cc4)cc3)nc21 was 7.25

====

# target_system: Human mTOR (FLAG-TOR) (Homo sapiens, UniProt P42345)
# Construct: FLAG
# experiment_description: Human mTOR kinase assay with purified enzyme, DELFIA format
# Format: biochemical
endpoint_name: IC50 (pM)
Provide the reading as a plain figure in pM.

Study these solved cases before continuing.
> print(dat)
                                   compound  endpoint.name  numeric.readout
1  CNC(=O)Nc1ccc(-c2nc(N3CC4CCC(C3)O4)c3cnn(C4CCC(O)CC4)c3n2)cc1 (stereo not drawn) [Example 64]           IC50              210
2  CN(C)CCOc1ccc(NC(=O)Nc2ccc(-c3nc(N4C5CCC4COC5)c4cnn(CC(F)(F)F)c4n3)cc2)cc1           IC50              575
3  CC(C)C(=O)N1CCC(n2ncc3c(N4CC5CCC(C4)O5)nc(-c4ccc(NC(=O)NCCF)cc4)nc32)CC1           IC50              470

Kindly note the recorded IC50 for CCNC(=O)Nc1ccc(-c2nc(N3CC4CCC(C3)O4)c3cnn(CC)c3n2)cc1 , which is 470

====

# target_system: PI3K (Homo sapiens)
# Construct: PI3 Kinase α IC50; other: PI3 Kinase α; other: PI3 Kinase α isoform, fluorescence polarization
# experiment_description: Fluorescence polarization assay for PI3K
# Format: biochemical
# particulars: PI3 Kinase α; read-out: PI3 Kinase α IC50
# log10(IC50) annotations
Units before log transform: nM; reported quantity: IC50; transform: log10.

Would you please look over these solved cases?
> print(dat)
                                   molecule  numeric.readout
1  CCn1ncc2c(N3CC4CCC(C3)O4)nc(-c3ccc(NC(=O)Nc4ccc(OCCN5CCOCC5)nc4)cc3)nc21 [Example 283]             2.57
2  CCn1ncc2c(N3CC4CCC(C3)O4)nc(-c3ccc(NC(=O)NCCOCCN)cc3)nc21 [Example 225]             3.14
3  Oc1ccc(Nc2nc(N3CC4CCC(C3)O4)c3cnn(C4CCN(Cc5ccccc5)CC4)c3n2)cc1 [Example 30]             3.39
4  Cn1ncc2c(N3CC4CCC(C3)O4)nc(-c3ccc(NC(=O)NCCO)cc3)nc21 [Example 54]             2.64

Input COC(=O)N1CCC(n2ncc3c(N4CC5CCC(C4)O5)nc(-c4ccc(NC(=O)Nc5ccc(N6CCN(C)CC6)nc5)cc4)nc32)CC1 [Example 167] . Output log10(IC50): 2.37

Documented log10(IC50) of CCn1ncc2c(N3CC4CCC(C3)O4)nc(-c3ccc(NC(=O)NCCCN)cc3)nc21 [Example 176] : 2.59

The value of log10(IC50) measured for the molecule O=C(Nc1ccc(-c2nc(N3C4CCC3COC4)c3cnn(CC(F)(F)F)c3n2)cc1)NC1CC1 [Example 271] turned out to be 3.57

====

# target_system: PI3K (Homo sapiens, UniProt P42336)
# Construct: PI3 Kinase α IC50; other: PI3 Kinase α; other: PI3 Kinase α isoform, fluorescence polarization
# experiment_description: Fluorescence polarization assay for PI3K
# Assay type: biochemical
# particulars: PI3 Kinase α; read-out: PI3 Kinase α IC50
endpoint_name: pIC50
pIC50 is a log-scale quantity: -log10 of the concentration expressed in molar.

Recorded pIC50, per entry:
> print(dat)
                                   compound  numeric.readout
1  CNC(=O)Nc1ccc(-c2nc(N3CC4CCC(C3)O4)c3cnn(C4CCC(O)CC4)c3n2)cc1 (stereo not shown) [Example 108]             6.05
2  CC(C)(C)n1ncc2c(N3CC4CCC(C3)O4)nc(-c3ccc(NC(=O)Nc4cccnc4)cc3)nc21 [Example 100]             6.83
3  COC(=O)N1CCC(n2ncc3c(N4CC5CCC(C4)O5)nc(-c4ccc(NC(=O)OCCO)cc4)nc32)CC1 [Example 112]             5.90
4  CCn1ncc2c(N3CC4CCC(C3)O4)nc(-c3ccc(NC(=O)Nc4ccc(CCO)cc4)cc3)nc21 [Example 183]             7.17
5  O=C(Nc1ccc(-c2nc(N3CC4CCC(C3)O4)c3cnn(C4CCN(Cc5cccnc5)CC4)c3n2)cc1)OCCO [Example 210]             5.76

Measured on PI3K (Homo sapiens, UniProt P42336), Cn1ncc2c(N3CC4CCC(C3)O4)nc(-c3ccc(NC(=O)Nc4ccc(N)cc4)cc3)nc21 [Example 234] has a documented pIC50 of 6.79

PI3K (Homo sapiens, UniProt P42336) pIC50 of CC(C)C(=O)N1CCC(n2ncc3c(N4CC5CCC(C4)O5)nc(-c4ccc(NC(=O)Nc5ccncc5)cc4)nc32)CC1 [Example 89] is 6.52

====

# target_system: PI3K (Homo sapiens)
# Construct: PI3 Kinase γ IC50; other: PI3 Kinase γ; other: PI3 Kinase γ isoform, fluorescence polarization
# experiment_description: Fluorescence polarization assay for PI3K
# Assay type: biochemical
# particulars: PI3 Kinase γ isoform, fluorescence polarization; read-out: PI3 Kinase γ IC50
Entries and their IC50 values follow.
Please reply with the bare figure in nM and do not write the unit itself.

Please review the entries below; each comes with its answer.
> print(dat)
                                   molecule  numeric.readout
1  COC1CCC(n2ncc3c(N4CC5CCC(C4)O5)nc(-c4ccc(NC(=O)Nc5ccc(N6CCN(C)CC6)nc5)cc4)nc32)CC1 (stereo not drawn)             2670
2  O=C(Nc1ccc(-c2nc(N3CC4CCC(C3)O4)c3cnn(C4CCC5(CCCO5)CC4)c3n2)cc1)Nc1ccc(N2CCNCC2)cc1 (single isomer, unassigned)             2020
3  CC(C)(C)OC(=O)N1CC2CN(c3nc(-c4ccc(NC(=O)Nc5ccncc5)cc4)nc4c3cnn4CC(F)(F)F)CC(C1)O2             5760
4  Cn1ncc2c(N3CC4COC(C3)O4)nc(-c3ccc(NC(=O)Nc4cccnc4)cc3)nc21 (stereo not drawn)              919
5  COC1CCC(n2ncc3c(N4CC5CCC(C4)O5)nc(-c4ccc(NC(=O)Nc5ccc(N6CCN(C)CC6)cc5)cc4)nc32)CC1 (stereo not drawn)              720

Observed IC50 on PI3K (Homo sapiens), entry CN1CCN(Cc2cc3nc(-c4ccc(NC(=O)Nc5cccnc5)cc4)nc(N4CC5CCC(C4)O5)c3s2)CC1 , equals 2610
